These data points were gathered from patent US20210261671A1.

# ELISA FLT3 (absorbance) listing for each entry below
Molecular target: T1, human FLT3 protein (human, UniProt P36888 27-541, limits assumed)
T1 construct: protein coated in the screening ELISA; also called ELISA FLT3
Experiment: colorimetric ELISA, periplasmic extract
Excerpt: Llamas were immunized with purified FLT3 protein expressed in Expi293 cells. A phage display library for expression of heavy variable antibody domains was constructed from circulating B cells isolated from the immunized llamas (See van der Linden, de Geus, Stok, Bos, van Wassenaar, Verrips, and Frenken. 2000. J Immunol Methods 240:185-195). […]
Please respond with the number in absorbance and leave the unit unwritten.

>>> observed_value("FLL15 (VHH, llama anti-FLT3 variable domain; E. coli periplasmic extract) VHH: QVQLQESGGGLVQAGGSLSLSCAASEGTISHAAMGWFRQAPGKERQFVAYDTWTGGSTNYADSVKDRFTITGDHAKNTVYLQMNSLKPEDTGVYYCAVRGRYSASYTYTNPASYKYWGQGTQVTVSS")
2.5
>>> observed_value("FLL103 (VHH, llama anti-FLT3 variable domain; E. coli periplasmic extract) VHH: QVQLQESGGGLVQAGGSLRLSCEASGPTFSINYIDWYRQAPGKQREWVAQITRDSNSFYADSVKGRFAVSRDNAKNTVYLQMNSLKPEDTAVYYCRVLSYWGQGTQVTVSS")
3.8
>>> observed_value("FLL823 (VHH, llama anti-FLT3 variable domain; E. coli periplasmic extract) VHH: QVQLQESGGGVVQVGGSLRLSCAASGGTFGYYAVGWFRQAPGKEREFVAAVTWNGAYLYSDPVKGRFTISRDNAKNTVYLQMNSLKSEDTAVYYCGLDRWSAVVESTPSTRGQGTQVTVSS")
3.6

# lookup: ELISA FLT3 (absorbance) of FLL187 (VHH, llama anti-FLT3 variable domain; E. coli periplasmic extract) VHH: QVQLQESGGGLVQPGGSLRLSCAASGVTFSINYIDWYRQAPGKQREWVAQITRDSNSFYADSVKGRFAISRENAKNTVYLQMNSLKPEDTAVYYCRVLSYWGQGTQVTVSS 1.9

# lookup: ELISA FLT3 (absorbance) of FLL107 (VHH, llama anti-FLT3 variable domain; E. coli periplasmic extract) VHH: QVQLQESGGGLVQAGGSLRLSCAASGRTFSSYAMGWFRQAPGKEREFVAAISWSGSNTYYADSVKGRFTISRDNAKNTVYLQMDSLKPEDTAVYYCAAGGSTRVVVTTTPVVKYWGQGTQVTVSS 3.8
